target of assay: D(1A) dopamine receptor (Homo sapiens)
procedure details: Positive allosteric modulation of human D1R expressed in CHO cells assessed as 2-fold increase in dopamine-induced cAMP accumulation preincubated for 10 mins followed by dopamine addition and measured after 20 mins by fluorescence assay
Format: functional, cell-based
property name: EC50 (nM)

{"structure notation": "CN(Cc1nc2cc(Br)ccc2[nH]1)C(=O)Cn1c(=O)oc2ccc(Cl)cc21", "scale unit": "nM", "EC50": 440}
{"structure notation": "CN(Cc1nc2cc(C(F)(F)F)ccc2[nH]1)C(=O)Cn1c(=O)oc2ccc(Cl)cc21", "scale unit": "nM", "EC50": 460}

* * *

procedure details: Clearance in rat
Type: ADME
condition: in vivo
property name: clearance (mL/min/kg)
Record the value in mL/min/kg, omitting the unit from your answer.

## Task clearance for `C[C@H]1c2cccc(CCC(C)(C)O)c2C[C@H](CO)N1C(=O)Cc1c(Cl)cccc1Cl` ?
## Result 16

* * *

target of assay: D(1A) dopamine receptor (Homo sapiens)
procedure details: Positive allosteric modulation of human D1R expressed in HEK cells assessed as increase in dopamine-induced cAMP accumulation
Assay type: functional, cell-based
pEC50: −log10 of the molar value.
property name: pEC50

{"molecule": "Cc1cccc(Cl)c1NC(=O)C1(C)CC2c3ccccc3C1c1cc(Cl)ccc12 (stereo not drawn)", "value observed": 7.66}

P. Clc1ccc(Br)c(CN2CCN([C@@H]3CC[C@@]4(c5ccc6c(c5)OCO6)C[C@H]4C3)CC2)c1
Q. Cc1ccc(Cl)c(NC(=O)C2(C)CC3c4ccccc4C2c2ccccc23)c1Cl (stereo not drawn)
## Task For the pair P and Q , which member has the lower pEC50 number? API: response body contains the label of the selected item.
## Result P
(P: 6.60, Q: 7.25)

* * *

target of assay: D(1A) dopamine receptor (Homo sapiens)
procedure details: Positive allosteric modulation of D1R (unknown origin) by HTS assay
property name: EC50 (µM)

A. C[C@H]1c2ccccc2CCN1C(=O)Cc1c(Cl)cccc1Cl
B. CC1c2ccsc2CCN1C(=O)Nc1c(Cl)cccc1Cl (configuration not stated)
## Task Between A and B , whose recorded EC50 is greater? Answer format: the label of the selected item.
## Result B
(B: 1.87 µM, A: 0.165 µM)

* * *

procedure details: Oral bioavailability in rat
Assay type: ADME, organism-based
condition: in vivo
property name: bioavailability (%)
Please reply with the bare figure in % and do not write the unit itself.

## Task I have this compound here, `C[C@H]1c2cccc(CCC(C)(C)O)c2C[C@H](CO)N1C(=O)Cc1c(Cl)cccc1Cl` , and I need its recorded bioavailability.
## Result 73

* * *

target of assay: D(1A) dopamine receptor (Homo sapiens, UniProt P21728)
Sequence (P21728 whole entry): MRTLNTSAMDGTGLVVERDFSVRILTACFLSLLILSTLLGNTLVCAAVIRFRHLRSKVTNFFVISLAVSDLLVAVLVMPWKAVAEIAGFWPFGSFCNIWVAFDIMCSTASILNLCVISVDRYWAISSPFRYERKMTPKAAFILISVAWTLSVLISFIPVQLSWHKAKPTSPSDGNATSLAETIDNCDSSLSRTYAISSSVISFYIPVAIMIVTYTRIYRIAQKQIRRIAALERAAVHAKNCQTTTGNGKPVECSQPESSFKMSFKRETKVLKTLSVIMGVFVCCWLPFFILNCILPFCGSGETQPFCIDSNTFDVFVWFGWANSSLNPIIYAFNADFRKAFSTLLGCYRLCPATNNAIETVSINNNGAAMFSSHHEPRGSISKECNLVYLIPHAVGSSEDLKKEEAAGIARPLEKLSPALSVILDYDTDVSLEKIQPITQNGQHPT
procedure details: Positive allosteric modulation of human D1R expressed in CHO cells assessed as increase in dopamine-induced cAMP accumulation
Assay type: functional, cell-based
property name: EC50 (µM)

P. Cc1ccc(Cl)c(NC(=O)C2(C)CC3c4ccccc4C2c2ccccc23)c1Cl (configuration not stated)
Q. Clc1ccc(Br)c(CN2CCN([C@@H]3CC[C@@]4(c5ccc6c(c5)OCO6)C[C@H]4C3)CC2)c1
## Task // max by EC50 over [ P , Q ] Pick one; state its label.
## Result Q
(Q: 0.21 µM, P: 0.03 µM)

* * *

target of assay: D(1A) dopamine receptor (Rattus norvegicus, UniProt P18901)
Sequence (P18901 whole entry): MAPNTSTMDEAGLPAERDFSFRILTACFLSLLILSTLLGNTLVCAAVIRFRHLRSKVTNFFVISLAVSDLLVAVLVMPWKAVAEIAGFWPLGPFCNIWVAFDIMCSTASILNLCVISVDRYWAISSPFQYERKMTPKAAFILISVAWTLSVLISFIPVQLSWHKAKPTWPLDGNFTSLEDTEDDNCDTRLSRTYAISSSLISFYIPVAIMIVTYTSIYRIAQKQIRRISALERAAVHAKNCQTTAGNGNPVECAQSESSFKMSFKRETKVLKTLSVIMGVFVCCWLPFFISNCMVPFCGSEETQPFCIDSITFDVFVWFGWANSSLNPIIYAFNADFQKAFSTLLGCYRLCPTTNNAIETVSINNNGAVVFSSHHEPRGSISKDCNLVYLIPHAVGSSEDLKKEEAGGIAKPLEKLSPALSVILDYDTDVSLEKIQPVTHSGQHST
procedure details: Positive allosteric modulation of rat D1R expressed in HEK cells assessed as increase in dopamine-induced cAMP accumulation relative to control
property name: EC50 (nM)
All answers are understood in nM, so give the number only.

## Task Request the reported EC50 associated with Cc1cccc(Cl)c1NC(=O)C1(C)CC2c3ccccc3C1c1cc(Cl)ccc12 (configuration not stated)
## Result 332
